System: Streptococcus sp. 'group B'
Assay: Antimicrobial activity against Streptococcus group B after 20 to 24 hrs by broth microdilution method
Format: functional
quantity-name: MIC90

Consider the reported MIC90 for these compounds:
compound: CCC[C@@H]1C[C@@H](C(=O)N[C@@H]([C@H]2O[C@H](SC)[C@H](O)[C@@H](O)[C@H]2O)[C@H](C)Cl)N(C)C1 [CLINDAMYCIN]
target-entity: Streptococcus sp. 'group B'
MIC90: 0.06 µg/mL
//
compound: CN(C)[C@@H]1C(O)=C(C(N)=O)C(=O)[C@@]2(O)C(O)=C3C(=O)c4c(O)cccc4[C@@](C)(O)[C@H]3C[C@@H]12 [TETRACYCLINE]
target-entity: Streptococcus sp. 'group B'
MIC90: > 8 µg/mL

Then this compound:
Reported MIC90 of CC[C@H]1OC(=O)[C@H](C)C(=O)[C@H](C)[C@@H](O[C@@H]2O[C@H](C)C[C@H](N(C)C)[C@H]2O)[C@](C)(OC)C[C@@H](C)C(=O)[C@H](C)[C@H]2N(CCCCn3cnc(-c4cccnc4)c3)C(=O)O[C@]12C [TELITHROMYCIN] : 0.015 µg/mL

---

System: Staphylococcus
Assay: Antimicrobial activity against methicillin-resistant coagulase-negative Staphylococcus after 20 to 24 hrs by broth microdilution method
Format: functional
// values below are reported MIC90
The figure you give is taken to be in µg/mL; do not add the unit.

Known results for molecules:
molecule: CCCCCCCCCCNCCN[C@@]1(C)C[C@H](O[C@H]2[C@H](Oc3c4cc5cc3Oc3ccc(cc3Cl)[C@@H](O)[C@@H](NC(=O)[C@@H](CC(C)C)NC)C(=O)N[C@@H](CC(N)=O)C(=O)N[C@H]5C(=O)N[C@H]3C(=O)N[C@H](C(=O)N[C@H](C(=O)O)c5cc(O)c(CNCP(=O)(O)O)c(O)c5-c5cc3ccc5O)[C@H](O)c3ccc(c(Cl)c3)O4)O[C@H](CO)[C@@H](O)[C@@H]2O)O[C@@H](C)[C@H]1O [TELAVANCIN]
MIC90 (µg/mL): 0.25

molecule: CN[C@H](CC(C)C)C(=O)N[C@H]1C(=O)N[C@@H](CC(N)=O)C(=O)N[C@H]2C(=O)N[C@H]3C(=O)N[C@H](C(=O)N[C@H](C(=O)O)c4cc(O)cc(O)c4-c4cc3ccc4O)[C@H](O)c3ccc(c(Cl)c3)Oc3cc2cc(c3O[C@@H]2O[C@H](CO)[C@@H](O)[C@H](O)[C@H]2O[C@H]2C[C@](C)(N)[C@H](O)[C@H](C)O2)Oc2ccc(cc2Cl)[C@H]1O [VANCOMYCIN]
MIC90 (µg/mL): 2

Now look at this one.
// field: MIC90; key: CC(=O)NC[C@H]1CN(c2ccc(N3CCOCC3)c(F)c2)C(=O)O1 [LINEZOLID] ; value = 2

---

Listed here are molecules together with their documented MIC90.
Test system: Enterococcus faecalis
Assay: Antimicrobial activity against vancomycin-susceptible Enterococcus faecalis after 20 to 24 hrs by broth microdilution method
Type: functional
Could you give me the number in µg/mL? Just the number is fine.

item-smiles: CC1(C)S[C@@H]2[C@H](NC(=O)[C@H](N)c3ccccc3)C(=O)N2[C@H]1C(=O)O
unit-descriptor: µg/mL
MIC90: 2

Entry "CN[C@H](CC(C)C)C(=O)N[C@H]1C(=O)N[C@@H](CC(N)=O)C(=O)N[C@H]2C(=O)N[C@H]3C(=O)N[C@H](C(=O)N[C@H](C(=O)O)c4cc(O)cc(O)c4-c4cc3ccc4O)[C@H](O)c3ccc(c(Cl)c3)Oc3cc2cc(c3O[C@@H]2O[C@H](CO)[C@@H](O)[C@H](O)[C@H]2O[C@H]2C[C@](C)(N)[C@H](O)[C@H](C)O2)Oc2ccc(cc2Cl)[C@H]1O" under Enterococcus faecalis had MIC90 of 2
